assay summary: chemical genetic growth profiling, strain panel (AID 1159580);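 note: tested at 20 µM; growth read once vehicle control cultures reached saturation at 30 °C; 1 = growth at the plate median or of vehicle wells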
conditions: S. cerevisiae deletion strains, growth OD, locus YGL248W, strain PDE1, stronger effect = lower value
Out of some 5,500 compounds screened, about 2,000 (36%) were called active. Not shown: some 18% with an inconclusive outcome. The list shows a part of the results.
Entries and their measured normalized growth follow.

{"compound": "COc1c(O)cc(O)cc1O", "normalized growth": 0.996}
{"compound": "O=c1[nH]c2ccccc2n1C1CCN(CCCC(c2ccc(F)cc2)c2ccc(F)cc2)CC1", "normalized growth": 0.979}
{"compound": "C=C(C)c1cc2cc(C(C)=O)c(O)cc2o1", "normalized growth": 0.967}
{"compound": "COc1ccc2ccc(=O)oc2c1CC=C(C)C", "normalized growth": 0.704}
{"compound": "COc1cc2ccc(=O)oc2cc1O", "normalized growth": 0.998}
{"compound": "COc1cc2c(cc1-c1coc3c4c(c(OC)cc3c1=O)OC(C)(C)C=C4)OCO2", "normalized growth": 0.929}
{"compound": "COc1cc(OC)c(-c2c(OC)cc(OC)cc2OC)c(OC)c1", "normalized growth": 1.03}
{"compound": "NCCS", "normalized growth": 1.01}
{"compound": "Cn1c([N+](=O)[O-])cnc1COC(N)=O", "normalized growth": 1.01}
{"compound": "CC(=O)N[C@@H](CC(=O)O)C(=O)O", "normalized growth": 1}
{"compound": "CCCC(=O)Nc1ncnc2c1ncn2C1O[C@@H]2COP(=O)(O)O[C@H]2[C@H]1OC(=O)CCC (some centres not stated)", "normalized growth": 1.01}
{"compound": "COc1ccc2[nH]cc(CCNC(C)=O)c2c1", "normalized growth": 1.01}
{"compound": "O=c1c(-c2ccc3c(c2)OCO3)coc2cc(O)ccc12", "normalized growth": 0.991}
{"compound": "CC1(C)C=Cc2c(cc3occ(-c4ccc5c(c4)OCO5)c(=O)c3c2O)O1", "normalized growth": 0.883}
{"compound": "O=[N+]([O-])/N=C1/NCCN1Cc1ccc(Cl)cc1", "normalized growth": 0.979}
{"compound": "C[C@]12CCC3C(CC[C@H]4CC(=O)CC[C@]34C)C1CCC2=O (some centres not stated)", "normalized growth": 0.912}
{"compound": "O=C(CCCN1CC=C(n2c(=O)[nH]c3ccccc32)CC1)c1ccc(F)cc1", "normalized growth": 0.982}
{"compound": "COc1cc(O)c(C(C)=O)c(OC)c1", "normalized growth": 0.996}
{"compound": "CC1=C(C(=O)O)N2C(=O)[C@@H](NC(=O)[C@H](N)C3=CCC=CC3)C2SC1 (some centres not stated)", "normalized growth": 1.01}
{"compound": "COc1cc(O)c(C)c(O)c1", "normalized growth": 1.03}
{"compound": "CC1=C2[C@](C)(C=CC1=O)C[C@H](O)[C@H]1[C@H](C)C(=O)O[C@]21C", "normalized growth": 1.01}
{"compound": "COc1cc(OC)cc(OC)c1", "normalized growth": 1.01}

* * *

assay summary: chemical genetic growth profiling, strain panel (AID 1159580)
conditions: S. cerevisiae deletion strains, growth OD, locus YLR258W, strain gsy2, stronger effect = lower value
Hit rate of the full screen: of about 5,500 compounds, about 2,000 (36%) were called active. Inconclusive results (about 18%) are left out. The list shows a part of the results.
Entries and their measured normalized growth follow.

{"smiles record": "COc1ccc2c(c1)[nH]c1c(C)nccc12", "normalized growth": 0.995}
{"smiles record": "CC1(C)C=Cc2c(cc3occ(-c4ccc5c(c4)OCO5)c(=O)c3c2O)O1", "normalized growth": 0.963}
{"smiles record": "COc1cc(OC)c2c(=O)c(-c3ccc4c(c3)OCO4)coc2c1", "normalized growth": 0.976}
{"smiles record": "O=c1c(-c2ccc3c(c2)OCO3)coc2cc(O)ccc12", "normalized growth": 0.981}
{"smiles record": "c1ccc2c(c1)[nH]c1cnccc12", "normalized growth": 0.998}
{"smiles record": "C=C(C)c1cc2cc(C(C)=O)c(O)cc2o1", "normalized growth": 0.932}
{"smiles record": "CCOc1ccc(Cc2nccc3cc(OCC)c(OCC)cc23)cc1OCC", "normalized growth": 0.968}
{"smiles record": "Cc1nccc2c1[nH]c1ccccc12", "normalized growth": 0.991}
{"smiles record": "COc1ccc2[nH]cc(CCNC(C)=O)c2c1", "normalized growth": 0.973}
{"smiles record": "COc1ccc2c(=O)c(-c3cc4c(cc3OC)OCO4)coc2c1", "normalized growth": 1}
{"smiles record": "Cn1c(=O)[nH]c(=O)c2[nH]cnc21", "normalized growth": 0.999}
{"smiles record": "COc1ccc(Cc2nccc3cc(OC)c(OC)cc23)cc1OC", "normalized growth": 1}

* * *

assay summary: chemical genetic growth profiling, strain panel (AID 1159580);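 note: tested at 20 µM; growth read once vehicle control cultures reached saturation at 30 °C; 1 = growth at the plate median or of vehicle wells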
conditions: S. cerevisiae deletion strains, growth OD, locus YLR384C, strain iki3
Screen size: about 5,500 compounds; about 2,000 (36%) were called active. Inconclusive results (about 18%) are left out. No stated cut-off is given here; in the data, active means normalized growth mostly below about 0.91 (no sharp cut-off); inconclusive means no clear call, values can overlap the other calls; inactive means mostly above about 0.92. The list shows a part of the results.
Classes used: active, inactive

{"compound": "COc1cc2ccc(=O)oc2cc1O", "assigned category": "inactive"}
{"compound": "CC1=C2CCC3C(CC[C@]4(C)C(=O)CCC34)[C@@]2(C)CCC1=O (stereo partly drawn)", "assigned category": "inactive"}
{"compound": "COc1ccc2ccc(=O)oc2c1CC=C(C)C", "assigned category": "inactive"}
{"compound": "C[C@]12C=CC(=O)C=C1CCC1C2CC[C@]2(C)C(=O)CCC12 (stereo partly drawn)", "assigned category": "inactive"}
{"compound": "COc1c2c(cc3occ(-c4ccc5c(c4)OCO5)c(=O)c13)OC(C)(C)C=C2", "assigned category": "inactive"}
{"compound": "O=C(O)CCCN1C(=O)c2cccc3cccc(c23)C1=O", "assigned category": "inactive"}
{"compound": "N#C/C(=C\\c1ccc(O)cc1)C(=O)O", "assigned category": "inactive"}
{"compound": "O=C1OC(=O)C2C3CCC(O3)C12 (stereo not drawn)", "assigned category": "inactive"}
{"compound": "O=c1ccc2cc(O[C@@H]3O[C@H](CO)[C@@H](O)[C@H](O)[C@H]3O)c(O)cc2o1", "assigned category": "inactive"}
{"compound": "C[C@]12C=CC(=O)C=C1CCC1C2C(=O)C[C@@]2(C)C1CC[C@]2(O)C(=O)CO (stereo partly drawn)", "assigned category": "inactive"}
{"compound": "CC(C)=CCOc1c2occc2cc2ccc(=O)oc12", "assigned category": "active"}
{"compound": "Cc1c(N(C)CS(=O)(=O)O)c(=O)n(-c2ccccc2)n1C", "assigned category": "inactive"}
{"compound": "CC(=O)OC1CCC23C(=O)OC45CCC(C6=CC(=O)OC6)C4(C)CCC2C5CCC3(O)C1 (stereo not drawn)", "assigned category": "inactive"}

* * *

assay summary: chemical genetic growth profiling, strain panel (AID 1159580);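 note: tested at 20 µM; growth read once vehicle control cultures reached saturation at 30 °C; 1 = growth at the plate median or of vehicle wells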
conditions: S. cerevisiae deletion strains, growth OD, locus YJR075W, strain HOC1, stronger effect = lower value
Screen size: about 5,500 compounds; about 2,000 (36%) were called active. Inconclusive results (about 18%) are left out. Some of the results follow.
Entries and their measured normalized growth follow.
observation type: normalized growth

{"compound": "COC(=O)c1csc2c(C(F)(F)F)cc(N3CCN(S(=O)(=O)c4ccc(C)cc4)CC3)nc12", "measured": 0.999}
{"compound": "C=CCN1CC[C@]23CCCCC2[C@H]1Cc1ccc(O)cc13 (stereo partly drawn)", "measured": 0.999}
{"compound": "COc1ccc(-n2c(SCc3ccc(Br)cc3)nnc2-c2ccco2)cc1", "measured": 0.969}
{"compound": "NNC(=S)Nc1ccc(C(F)(F)F)cc1", "measured": 0.961}
{"compound": "Cc1oc(-c2ccccc2)cc1C(=O)N1CCN(c2ccc(C(F)(F)F)cn2)CC1", "measured": 0.964}
{"compound": "Cc1cccc(N(C)C(=S)Oc2ccc3ccccc3c2)c1", "measured": 0.971}
{"compound": "S=c1[nH]nc(-c2ccco2)n1-c1ccc2c(c1)OCCO2", "measured": 0.985}
{"compound": "CC(=O)NN(C)c1ccc(C(F)(F)F)cc1[N+](=O)[O-]", "measured": 1}

* * *

assay summary: chemical genetic growth profiling, strain panel (AID 1159580);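 note: tested at 20 µM; growth read once vehicle control cultures reached saturation at 30 °C; 1 = growth at the plate median or of vehicle wells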
conditions: S. cerevisiae deletion strains, growth OD, locus YIL073C, strain SPO22, stronger effect = lower value
Hit rate of the full screen: of about 5,500 compounds, about 2,000 (36%) were called active. About 18% were inconclusive and are not listed. This is one part of the list.
Lab note: compare normalized growth with 1, writing Condition met if less and Condition not met if equal or more.

{"smiles record": "O=C1c2ccccc2C(=O)c2c1ccc(O)c2O", "assigned category": "Condition met"}
{"smiles record": "CC1=C2[C@](C)(C=CC1=O)C[C@H](O)[C@H]1[C@H](C)C(=O)O[C@]21C", "assigned category": "Condition not met"}
{"smiles record": "COc1cc(OC)c(-c2c(OC)cc(OC)cc2OC)c(OC)c1", "assigned category": "Condition not met"}
{"smiles record": "Cc1cc(C)nc(NS(=O)(=O)c2ccc(N)cc2)n1", "assigned category": "Condition met"}
{"smiles record": "Cc1cc(O)c2c(c1O)C(=O)c1c(O)cc(C)c(O)c1C2=O", "assigned category": "Condition not met"}
